target: α2δ subunit derived from porcine brain tissue (Sus scrofa, UniProt A0A287BIN3); construct: the α2δ subunit derived from porcine brain tissue was used; from tissue; host or cells: porcine brain tissue; assay: [3H]gabapentin radioligand binding assay (α2δ assay)
Sequence (A0A287BIN3 25-1109): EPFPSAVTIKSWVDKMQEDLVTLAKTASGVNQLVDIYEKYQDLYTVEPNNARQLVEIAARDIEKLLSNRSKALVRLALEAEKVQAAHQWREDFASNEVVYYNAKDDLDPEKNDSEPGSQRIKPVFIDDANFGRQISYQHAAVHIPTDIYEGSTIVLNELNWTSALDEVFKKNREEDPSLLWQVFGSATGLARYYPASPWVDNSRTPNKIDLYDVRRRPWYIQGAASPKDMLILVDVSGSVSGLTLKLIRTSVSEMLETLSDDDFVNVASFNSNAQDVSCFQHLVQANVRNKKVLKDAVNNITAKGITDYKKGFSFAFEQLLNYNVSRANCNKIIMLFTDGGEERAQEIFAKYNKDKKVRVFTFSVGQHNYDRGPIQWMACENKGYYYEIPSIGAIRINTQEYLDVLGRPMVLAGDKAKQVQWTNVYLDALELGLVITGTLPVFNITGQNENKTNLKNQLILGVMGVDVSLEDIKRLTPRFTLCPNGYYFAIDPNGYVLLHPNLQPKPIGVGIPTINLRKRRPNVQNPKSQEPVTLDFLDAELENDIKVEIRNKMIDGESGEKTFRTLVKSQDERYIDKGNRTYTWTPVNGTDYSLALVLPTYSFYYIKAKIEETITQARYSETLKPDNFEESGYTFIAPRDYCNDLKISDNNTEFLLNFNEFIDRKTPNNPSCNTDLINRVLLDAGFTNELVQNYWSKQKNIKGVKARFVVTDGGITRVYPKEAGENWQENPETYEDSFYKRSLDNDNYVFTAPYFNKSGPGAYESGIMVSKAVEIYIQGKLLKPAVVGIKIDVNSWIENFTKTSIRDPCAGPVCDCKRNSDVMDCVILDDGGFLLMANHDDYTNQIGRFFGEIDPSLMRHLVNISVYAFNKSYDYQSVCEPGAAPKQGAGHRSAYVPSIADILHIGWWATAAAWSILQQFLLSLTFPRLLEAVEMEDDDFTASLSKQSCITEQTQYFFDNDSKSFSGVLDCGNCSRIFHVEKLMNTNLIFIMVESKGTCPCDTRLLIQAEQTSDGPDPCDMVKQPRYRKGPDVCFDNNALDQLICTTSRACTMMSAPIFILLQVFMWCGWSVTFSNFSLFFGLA
readout_name: pIC50
# pIC50 is unitless: minus log10 of the molar concentration; print number only

Entry under test: NCC(CC(=O)O)Cc1ccco1 (stereo not shown) . Its pIC50 was 6.38

----------
Measured IC50 by item
target: α2δ subunit derived from porcine brain tissue (Sus scrofa, UniProt A0A287BIN3); construct: the α2δ subunit derived from porcine brain tissue was used; from tissue; host or cells: porcine brain tissue; experiment: [3H]gabapentin radioligand binding assay (α2δ assay); settings: read-out: α2δ Assay IC50
Field format: number, assumed µM, no unit text.

Record NCC(CC(=O)O)Cc1cccs1 (centres unmarked) has α2δ subunit derived from porcine brain tissue (Sus scrofa, UniProt A0A287BIN3) IC50 equal to 2.67

Shifting focus to the compound that follows.
Measured IC50 (α2δ subunit derived from porcine brain tissue (Sus scrofa, UniProt A0A287BIN3)), entry NCC(CC(=O)O)Cc1ccsc1 (centres unmarked) : 0.831
